Biological target: rat P2X3 receptor (Rattus norvegicus (Rat))
Sequence (P49654 whole entry): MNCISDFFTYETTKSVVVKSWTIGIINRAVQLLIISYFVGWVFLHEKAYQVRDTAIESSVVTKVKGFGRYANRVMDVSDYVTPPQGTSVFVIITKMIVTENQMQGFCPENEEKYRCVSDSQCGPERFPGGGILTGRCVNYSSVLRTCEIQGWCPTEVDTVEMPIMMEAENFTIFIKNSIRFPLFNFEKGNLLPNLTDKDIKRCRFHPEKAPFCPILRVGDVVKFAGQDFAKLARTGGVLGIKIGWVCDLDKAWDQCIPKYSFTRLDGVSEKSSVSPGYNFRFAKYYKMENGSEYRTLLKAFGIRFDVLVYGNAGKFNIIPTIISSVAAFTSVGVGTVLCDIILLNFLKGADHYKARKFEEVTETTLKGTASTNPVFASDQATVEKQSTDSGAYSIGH
Test: Evaluation of rat P2X3 receptor inhibitory activity (Fluo-3 calcium fluorescence, FDSS 3000, ATP stimulation)
Type: cell-based
So I've got a bunch of molecules here, and I need their IC50 values.
Quick note: give the figure in nM, leave out the unit.

Inquiry: Item O=c1[nH]/c(=N\c2ccc(Oc3ccon3)cc2)n(Cc2ccc(Cl)cc2)c(=O)n1CC(CO)CO [Compound I-2291] has what recorded IC50?
Reply text: 3

Inquiry: Item CCn1c(=O)[nH]/c(=N\c2ccc(Oc3ccnc(C(=O)O)c3)cc2)n(Cc2ccc(Cl)cc2)c1=O [Compound I-1788] has what recorded IC50?
Reply text: 5

Inquiry: Item C[C@@H](Cn1c(=O)[nH]/c(=N\c2ccc(OCC3CC3)cc2)n(Cc2ccc(Cl)cc2)c1=O)C(=O)O [Compound I-0837] has what recorded IC50?
Reply text: 19

---

Target: human P2X3 receptor (Homo sapiens (Human), UniProt P56373)
Sequence (P56373 whole entry): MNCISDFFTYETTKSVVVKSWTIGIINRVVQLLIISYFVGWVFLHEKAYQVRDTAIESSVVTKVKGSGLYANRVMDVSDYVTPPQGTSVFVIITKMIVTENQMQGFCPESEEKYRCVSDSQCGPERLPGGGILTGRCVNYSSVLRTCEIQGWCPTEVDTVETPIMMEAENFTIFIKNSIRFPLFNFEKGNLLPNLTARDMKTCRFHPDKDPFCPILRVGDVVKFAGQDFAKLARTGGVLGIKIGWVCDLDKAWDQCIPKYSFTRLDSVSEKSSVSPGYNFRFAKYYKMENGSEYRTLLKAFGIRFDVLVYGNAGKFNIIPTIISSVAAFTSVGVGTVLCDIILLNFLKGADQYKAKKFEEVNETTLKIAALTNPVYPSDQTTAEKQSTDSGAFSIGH
Experiment: Evaluation of human P2X3 receptor inhibitory activity (Fluo-3 calcium fluorescence, FDSS 3000, ATP stimulation);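 note: stimulus was 50 nM ATP with fluorescence followed for 3 min, and the response per well was peak post-ATP fluorescence divided by the reading at measurement start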
Type: cell-based
Settings: C6BU-1 cells stably expressing human P2X3 receptor
So I've got a bunch of compounds here, and I need their IC50 values.
Quick note: give the figure in nM, leave out the unit.

Inquiry: Item Cc1ccc(Cn2c(=O)n(C[C@H](C)C(=O)O)c(=O)[nH]/c2=N\c2ccc(OC3COC3)cc2)cc1 has what recorded IC50?
Reply text: 117

Inquiry: Item COCc1cc(/N=c2\[nH]c(=O)n(CCC(=O)O)c(=O)n2Cc2ccc(C)cc2)ccc1OC(C)C has what recorded IC50?
Reply text: 926

Inquiry: Item Cc1ccc(Cn2c(=O)n(C[C@H](C)C(=O)O)c(=O)[nH]/c2=N\c2ccc(Oc3ccnc(O)c3)cc2)cc1 has what recorded IC50?
Reply text: 6

Inquiry: Item COC(=O)[C@@H](C)Cn1c(=O)[nH]/c(=N\c2ccc(OCC(C)C)cc2)n(Cc2ccc(Cl)cc2)c1=O has what recorded IC50?
Reply text: 27

Inquiry: Item O=c1[nH]/c(=N\c2ccc(Oc3cncc(CO)c3)cc2)n(Cc2ccc(Cl)cc2)c(=O)n1CCOC1CCCCO1 (stereo not shown) has what recorded IC50?
Reply text: 3

Inquiry: Item CCOC(=O)CCn1c(=O)[nH]/c(=N\c2ccc(OC(C)C)c(Cl)c2)n(CC2CCC3(CC2)CC3)c1=O has what recorded IC50?
Reply text: 4

Inquiry: Item Cc1ccc(Cn2c(=O)n(CCC(=O)O)c(=O)[nH]/c2=N\c2cccc(Cl)c2)cc1 has what recorded IC50?
Reply text: 384

---

Biological target: human P2X3 receptor (Homo sapiens (Human))
Experiment: Evaluation of human P2X3 receptor inhibitory activity (Fluo-3 calcium fluorescence, FDSS 3000, ATP stimulation)
Assay type: cell-based
Conditions: C6BU-1 cells stably expressing human P2X3 receptor
So I've got a bunch of compounds here, and I need their IC50 values.

Inquiry: Item COC(=O)CCCn1c(=O)[nH]/c(=N\c2ccc(Oc3ccc(C)nc3)cc2)n(Cc2ccc(Cl)cc2)c1=O [Compound I-1368] has what recorded IC50?
Reply text: 5 nM

Inquiry: Item CC1CCC(Cn2c(=O)n(CCO)c(=O)[nH]/c2=N\c2ccc(Oc3ccnc(O)c3)cc2)CC1 (stereo not drawn) [Compound I-2022] has what recorded IC50?
Reply text: 7 nM

Inquiry: Item Cc1ccc(Cn2c(=O)n([C@@H](C)[C@@H](C)C(=O)O)c(=O)[nH]/c2=N\c2ccc(OCC(C)C)cc2)cc1 [Compound I-1387] has what recorded IC50?
Reply text: 44 nM

Inquiry: Item CCn1c(=O)[nH]/c(=N\c2ccc(Oc3ccc(C)c(C(=O)O)c3)cc2)n(Cc2ccc(Cl)cc2)c1=O [Compound I-2017] has what recorded IC50?
Reply text: 41 nM

Inquiry: Item COC(=O)Cn1c(=O)[nH]/c(=N\c2ccc(OC3CCC3)cc2)n(Cc2ccc(Cl)cc2)c1=O [Compound I-1939] has what recorded IC50?
Reply text: 30 nM

Inquiry: Item Cc1ccc(Cn2c(=O)n([C@@H](C)[C@@H](C)C(=O)O)c(=O)[nH]/c2=N\c2ccc(N3CCCCC3)cc2)cc1 [Compound I-1394] has what recorded IC50?
Reply text: 44 nM

Inquiry: Item CCOC(=O)C1(Cn2c(=O)[nH]/c(=N\c3ccc(OC(C)C)c(C)c3)n(Cc3ccc(Cl)cc3)c2=O)CC1 [Compound I-0694] has what recorded IC50?
Reply text: 13 nM

Inquiry: Item CC(C)Oc1ccc(/N=c2\[nH]c(=O)n(CCCCC(=O)O)c(=O)n2Cc2ccc(Cl)cc2)cc1Cl [Compound I-2184] has what recorded IC50?
Reply text: 10 nM

Inquiry: Item COC(=O)[C@@H](C)Cn1c(=O)[nH]/c(=N\c2ccc(C)c(Cl)c2)n(Cc2ccc(Cl)cc2)c1=O [Compound I-0691] has what recorded IC50?
Reply text: 48 nM

Inquiry: Item CCn1c(=O)[nH]/c(=N\c2ccc(Oc3ccnc(C(=O)O)c3)cc2)n(CC2CCC3(CC2)CC3)c1=O [Compound I-2177] has what recorded IC50?
Reply text: 14 nM

Inquiry: Item COC(=O)[C@@H](C)[C@@H](C)n1c(=O)[nH]/c(=N\c2ccc(OCC3CC3)cc2)n(Cc2ccc(Cl)cc2)c1=O [Compound I-1316] has what recorded IC50?
Reply text: 54 nM

Inquiry: Item COC(=O)[C@@H](C)Cn1c(=O)[nH]/c(=N\c2ccc3nc(C)c(C)nc3c2)n(Cc2ccc(Cl)cc2)c1=O [Compound I-1320] has what recorded IC50?
Reply text: 365 nM

Inquiry: Item CC[C@H](CC(=O)OC)n1c(=O)[nH]/c(=N\c2ccc(OC(C)C)c(C)c2)n(Cc2ccc(Cl)cc2)c1=O [Compound I-0783] has what recorded IC50?
Reply text: 65 nM

Inquiry: Item Cc1cc(/N=c2\[nH]c(=O)n(C[C@H]3COC(C)(C)O3)c(=O)n2Cc2ccc(Cl)cc2)ccc1OC(C)C [Compound I-0709] has what recorded IC50?
Reply text: 7 nM

Inquiry: Item CNC(=O)c1cc(Oc2ccc(/N=c3\[nH]c(=O)n(C)c(=O)n3Cc3ccc(Cl)cc3)cc2)ccn1 [Compound I-2011] has what recorded IC50?
Reply text: 10 nM

Inquiry: Item COC(=O)[C@H](C)[C@H](C)n1c(=O)[nH]/c(=N\c2cccc(C(F)(F)F)c2)n(Cc2ccc(C)cc2)c1=O [Compound I-1309] has what recorded IC50?
Reply text: 21 nM

Inquiry: Item CC(C)Oc1ccc(/N=c2\[nH]c(=O)n(CCN/C(=N\C#N)Oc3ccccc3)c(=O)n2Cc2ccc(Cl)cc2)cc1F [Compound I-0652] has what recorded IC50?
Reply text: 102 nM

Inquiry: Item CC(C)Oc1ccc(/N=c2\[nH]c(=O)n(CCc3ncn[nH]3)c(=O)n2Cc2ccc(Cl)cc2)cc1F [Compound I-0672] has what recorded IC50?
Reply text: 8 nM

Inquiry: Item CCn1c(=O)[nH]/c(=N\c2ccc(Oc3cncc(C#N)c3)cc2)n(CC2CCC3(CC2)CC3)c1=O [Compound I-2179] has what recorded IC50?
Reply text: 3 nM

Inquiry: Item Cc1[nH]c2ccc(/N=c3\[nH]c(=O)n(CCO)c(=O)n3Cc3ccc(Cl)cc3)cc2c1C [Compound I-2042] has what recorded IC50?
Reply text: 23 nM

Inquiry: Item CCOC(=O)CCn1c(=O)[nH]/c(=N\c2ccc3nc(C)sc3c2)n(CC2CCC(C)CC2)c1=O (stereo not drawn) [Compound I-1990] has what recorded IC50?
Reply text: 2 nM

Inquiry: Item CCC(Cn1c(=O)[nH]/c(=N\c2ccc(OC(C)C)c(C)c2)n(Cc2ccc(Cl)cc2)c1=O)C(=O)OC(C)(C)C (stereo not drawn) [Compound I-0701] has what recorded IC50?
Reply text: 35 nM

Inquiry: Item Cc1cc(/N=c2\[nH]c(=O)n(C[C@H](C)C(=O)O)c(=O)n2Cc2ccccc2)ccc1OC(C)C [Compound I-0795] has what recorded IC50?
Reply text: 724 nM

Inquiry: Item CCCc1ccc(/N=c2\[nH]c(=O)n(CCC(=O)O)c(=O)n2Cc2ccc(Cl)cc2)cc1C [Compound I-1253] has what recorded IC50?
Reply text: 281 nM

Inquiry: Item Cc1ccc(Cn2c(=O)n(CC(C)(C)C(=O)O)c(=O)[nH]/c2=N\c2ccc(CC(C)C)c(Cl)c2)cc1 [Compound I-1462] has what recorded IC50?
Reply text: 3 nM

Inquiry: Item CCc1cc2cc(/N=c3\[nH]c(=O)n(C[C@H](C)C(=O)O)c(=O)n3Cc3ccc(Cl)cc3)ccc2s1 [Compound I-1964] has what recorded IC50?
Reply text: 277 nM

Inquiry: Item Cc1cc(/N=c2\[nH]c(=O)n(C[C@H](C)C(=O)NCCO)c(=O)n2Cc2ccc(Cl)cc2)ccc1OC(C)C [Compound I-0723] has what recorded IC50?
Reply text: 24 nM

These measurements were taken from patent US9718790B2.
